Cited source: patent US8343961B2

Biological target: UniProt P29322
Sequence (P29322 28-1005, species assumed): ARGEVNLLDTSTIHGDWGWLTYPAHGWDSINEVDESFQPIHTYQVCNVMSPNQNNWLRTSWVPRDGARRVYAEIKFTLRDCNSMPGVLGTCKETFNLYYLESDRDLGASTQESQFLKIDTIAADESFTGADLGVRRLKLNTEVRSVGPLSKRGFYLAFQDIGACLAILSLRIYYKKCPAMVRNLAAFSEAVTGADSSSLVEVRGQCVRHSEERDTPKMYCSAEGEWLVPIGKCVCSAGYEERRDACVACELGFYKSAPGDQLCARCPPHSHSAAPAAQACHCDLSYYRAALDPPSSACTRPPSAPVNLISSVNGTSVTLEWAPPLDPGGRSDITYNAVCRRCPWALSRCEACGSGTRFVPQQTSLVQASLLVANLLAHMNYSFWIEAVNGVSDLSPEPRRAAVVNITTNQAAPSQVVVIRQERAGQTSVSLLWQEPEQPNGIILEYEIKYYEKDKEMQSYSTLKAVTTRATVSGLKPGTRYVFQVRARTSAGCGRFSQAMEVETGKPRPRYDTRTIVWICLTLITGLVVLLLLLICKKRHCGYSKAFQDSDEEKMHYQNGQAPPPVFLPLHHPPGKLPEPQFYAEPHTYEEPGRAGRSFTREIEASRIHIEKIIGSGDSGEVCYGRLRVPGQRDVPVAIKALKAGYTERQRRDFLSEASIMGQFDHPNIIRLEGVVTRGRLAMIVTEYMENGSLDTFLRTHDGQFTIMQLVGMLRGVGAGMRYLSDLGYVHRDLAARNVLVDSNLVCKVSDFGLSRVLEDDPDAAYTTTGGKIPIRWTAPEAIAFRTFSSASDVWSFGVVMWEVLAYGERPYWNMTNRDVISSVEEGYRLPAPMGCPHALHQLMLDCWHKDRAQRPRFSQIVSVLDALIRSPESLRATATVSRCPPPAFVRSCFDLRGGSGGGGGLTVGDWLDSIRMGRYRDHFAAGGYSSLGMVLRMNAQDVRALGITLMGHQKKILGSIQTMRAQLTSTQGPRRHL
Test: EphA8 Kinase Activity Assay
Format: biochemical
Conditions: read-out: EphA8, % INH, at 30 uM
observable: inhibition at 30 µM

According to the records, this compound COc1cc2c(cc1OC)C(CCc1ccccc1)N(c1nc(N)nc3[nH]ncc13)CC2 (centres unmarked) [Compound 51] displays inhibition at 30 µM of < 50%

----------
Molecular target: RET kinase (Homo sapiens, UniProt P07949)
Sequence (P07949 29-1114): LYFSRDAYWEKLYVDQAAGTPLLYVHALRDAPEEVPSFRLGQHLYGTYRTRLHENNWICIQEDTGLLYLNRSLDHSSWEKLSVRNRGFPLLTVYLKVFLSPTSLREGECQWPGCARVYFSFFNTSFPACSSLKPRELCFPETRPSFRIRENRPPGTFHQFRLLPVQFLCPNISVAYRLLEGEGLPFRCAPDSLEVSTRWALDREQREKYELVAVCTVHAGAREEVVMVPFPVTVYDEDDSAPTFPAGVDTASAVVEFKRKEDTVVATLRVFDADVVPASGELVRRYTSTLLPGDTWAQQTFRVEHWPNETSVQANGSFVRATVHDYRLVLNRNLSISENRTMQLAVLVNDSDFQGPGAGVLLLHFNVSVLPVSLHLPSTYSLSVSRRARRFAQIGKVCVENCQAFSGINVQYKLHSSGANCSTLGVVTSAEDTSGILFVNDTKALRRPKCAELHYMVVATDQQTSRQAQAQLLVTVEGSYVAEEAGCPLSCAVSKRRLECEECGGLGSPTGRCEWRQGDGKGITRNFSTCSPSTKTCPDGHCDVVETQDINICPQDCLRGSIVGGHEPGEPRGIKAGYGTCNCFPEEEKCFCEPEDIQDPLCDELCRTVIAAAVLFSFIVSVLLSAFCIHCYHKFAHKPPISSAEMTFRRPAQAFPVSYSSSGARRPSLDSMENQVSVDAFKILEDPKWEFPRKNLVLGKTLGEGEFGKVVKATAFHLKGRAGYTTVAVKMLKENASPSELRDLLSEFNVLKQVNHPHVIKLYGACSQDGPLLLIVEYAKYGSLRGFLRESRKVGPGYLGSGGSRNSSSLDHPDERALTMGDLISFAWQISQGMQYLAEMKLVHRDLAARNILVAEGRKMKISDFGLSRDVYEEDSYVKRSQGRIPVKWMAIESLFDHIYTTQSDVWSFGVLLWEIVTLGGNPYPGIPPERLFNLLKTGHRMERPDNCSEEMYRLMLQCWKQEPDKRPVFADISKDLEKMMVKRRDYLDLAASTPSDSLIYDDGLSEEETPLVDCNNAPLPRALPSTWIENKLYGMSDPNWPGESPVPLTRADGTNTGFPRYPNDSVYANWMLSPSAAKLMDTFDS
Assay: RET Kinase Activity Assay
Format: biochemical
Details: read-out: Ret, % INH, at 30 uM
Protocol: The disclosed compounds were assayed for their ability to inhibit the activity of RET kinase. Nunc Maxwasorb plates were coated with streptavidin by overnight incubation with 100 μL per well of 1 μg/mL Streptavidin in DPBS. […] From the reaction plate, 50 μL was transferred to the streptavidin coated plate. […] The fluorescent readout was initiated by the addition of 100 μL/well of Attophos reagent (6 mg/10 mL). The reading was done on the Perkin Elmer Envision system.
observable: inhibition at 30 µM

Solved entries (count: 3):
// inhibition at 30 µM lookup, compound = Nc1nc(N2CCN(CCCc3ccccc3)c3ccccc3C2)c2cn[nH]c2n1 , result: < 50%

The reported value for COc1cccc(CN2CCN(c3nc(N)nc4[nH]ncc34)Cc3ccccc32)c1 in terms of inhibition at 30 µM is 50 to 79%

Record Cc1ccc(CN2CCN(c3nc(N)nc4[nH]cnc34)Cc3ccccc32)cc1 . Reported inhibition at 30 µM: 50 to 79%

Now look at this entry.
The recorded inhibition at 30 µM for COc1ccccc1CN1CCN(c2nc(N)nc3[nH]cnc23)Cc2ccccc21 is 50 to 79%
